The measured values listed here are drawn from ChEMBL document CHEMBL5120909.

Test: Selectivity index, ratio of CC50 for cytotoxicity against human HFF cells infected with HCMV AD-169 virus assessed as reduction in cell viability by cell titer-glo assay to EC50 for antiviral activity against HCMV AD-169 infected in HFF cells assessed as inhibition of virus-induced cytopathic effect measured after 14 days
Type: toxicity, cell-based
Details: read-out: Ratio CC50/EC50
Recorded measurements of selectivity ratio at 336 h, one per entry

Compound	selectivity ratio at 336 h
C#CC(CO)(Cn1ccc(=O)[nH]c1=O)OCP(=O)(O)O (racemic)	1
C#CC(CO)(Cn1cnc2c(=O)[nH]c(N)nc21)OCP(=O)(O)O (stereo not given)	> 10
C#CC(CO)(Cn1ccc(N)nc1=O)OCP(=O)(O)O (racemic)	< 4
C#CC(CO)(Cn1cc(C)c(=O)[nH]c1=O)OCP(=O)(O)O (racemic)	< 5
C#CC(CO)(Cn1cnc2c(N)ncnc21)OCP(=O)(O)O (racemic)	< 5
